Each recorded value in this set is attributed to BindingDB's records for doi:10.1074/jbc.M110.139634.

- systemName: Macrophage metalloelastase (Homo sapiens, UniProt P39900)
- Sequence (P39900 whole entry): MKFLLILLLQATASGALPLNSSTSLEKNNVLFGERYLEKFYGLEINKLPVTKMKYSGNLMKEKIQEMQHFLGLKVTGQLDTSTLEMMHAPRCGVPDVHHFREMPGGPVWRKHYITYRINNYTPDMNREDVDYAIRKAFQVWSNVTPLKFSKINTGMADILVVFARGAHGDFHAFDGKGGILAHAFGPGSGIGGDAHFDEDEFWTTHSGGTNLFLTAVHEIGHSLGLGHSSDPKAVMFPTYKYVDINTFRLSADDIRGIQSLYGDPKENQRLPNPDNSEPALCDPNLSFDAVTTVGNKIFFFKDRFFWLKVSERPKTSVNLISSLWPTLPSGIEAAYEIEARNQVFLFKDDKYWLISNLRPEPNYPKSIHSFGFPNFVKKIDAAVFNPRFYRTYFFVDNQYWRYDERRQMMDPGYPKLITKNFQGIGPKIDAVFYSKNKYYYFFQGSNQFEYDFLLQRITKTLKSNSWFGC
pKi: −log10 of the molar value.
parameterMeasured: pKi

INSERT INTO assay_data (compound, systemname, readoutvalue) VALUES
  ('NC(=O)[C@@H](CCC(=O)O)NC(=O)[C@H](CCC(=O)O)NC(=O)C(Cc1cc(-c2ccc(-c3cccc(Cl)c3)cc2)no1)CP(=O)(O)c1ccc(Br)cc1 (stereo partly specified)', 'Macrophage metalloelastase (Homo sapiens, UniProt P39900)', 9.72);

---

- systemName: Neutrophil collagenase (Homo sapiens, UniProt P22894)
- Sequence (P22894 whole entry): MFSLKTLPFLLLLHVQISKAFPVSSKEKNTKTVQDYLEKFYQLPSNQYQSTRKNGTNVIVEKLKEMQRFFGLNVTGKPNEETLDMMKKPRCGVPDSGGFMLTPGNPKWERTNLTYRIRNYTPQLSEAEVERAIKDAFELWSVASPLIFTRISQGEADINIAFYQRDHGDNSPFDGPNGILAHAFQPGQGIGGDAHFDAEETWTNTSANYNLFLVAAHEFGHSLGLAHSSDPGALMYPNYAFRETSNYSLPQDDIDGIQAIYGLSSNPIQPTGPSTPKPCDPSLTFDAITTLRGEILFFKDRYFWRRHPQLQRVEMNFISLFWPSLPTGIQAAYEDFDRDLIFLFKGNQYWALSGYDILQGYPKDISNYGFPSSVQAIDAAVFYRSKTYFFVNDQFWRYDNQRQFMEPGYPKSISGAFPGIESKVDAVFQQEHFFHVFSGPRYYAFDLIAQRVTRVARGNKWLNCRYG
- method: Enzyme Assay
- conditionParameters: pH 6.8; 25 °C
- Source text: Enzyme assay using matrix metalloproteinases.
pKi: −log10 of the molar value.
parameterMeasured: pKi

INSERT INTO assay_data (compound, parametermeasured, readoutvalue) VALUES
  ('NC(=O)[C@@H](CCC(=O)O)NC(=O)[C@H](CCC(=O)O)NC(=O)C(Cc1cc(-c2ccc(-c3cccc(Cl)c3)cc2)no1)CP(=O)(O)c1ccc(Br)cc1 (stereo partly specified)', 'pKi', 6.57);

---

- systemName: 72 kDa type IV collagenase (Homo sapiens)
- Sequence (P08253 whole entry): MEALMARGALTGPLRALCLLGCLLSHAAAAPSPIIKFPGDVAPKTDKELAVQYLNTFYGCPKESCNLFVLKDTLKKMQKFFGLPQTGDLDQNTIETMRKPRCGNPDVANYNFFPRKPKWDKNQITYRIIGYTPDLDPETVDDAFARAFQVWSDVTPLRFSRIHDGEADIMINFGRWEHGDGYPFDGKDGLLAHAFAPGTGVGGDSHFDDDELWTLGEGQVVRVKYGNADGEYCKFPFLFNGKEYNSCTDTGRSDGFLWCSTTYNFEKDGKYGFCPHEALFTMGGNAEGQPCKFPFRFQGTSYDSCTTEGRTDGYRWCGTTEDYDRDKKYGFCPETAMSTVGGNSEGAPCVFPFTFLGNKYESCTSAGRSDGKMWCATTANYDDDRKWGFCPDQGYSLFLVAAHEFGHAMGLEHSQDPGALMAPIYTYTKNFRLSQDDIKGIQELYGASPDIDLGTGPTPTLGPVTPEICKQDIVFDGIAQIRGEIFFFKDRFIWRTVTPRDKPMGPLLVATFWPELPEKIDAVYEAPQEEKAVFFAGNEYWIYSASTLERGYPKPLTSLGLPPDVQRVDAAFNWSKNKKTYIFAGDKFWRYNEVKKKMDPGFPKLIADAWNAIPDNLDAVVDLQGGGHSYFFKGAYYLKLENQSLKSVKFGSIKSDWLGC
- method: Enzyme Assay
- conditionParameters: pH 6.8; 25 °C
pKi: −log10 of the molar value.
parameterMeasured: pKi

INSERT INTO results (compound, systemname, parametermeasured, readoutvalue) VALUES
  ('NC(=O)[C@@H](CCC(=O)O)NC(=O)[C@H](CCC(=O)O)NC(=O)C(Cc1cc(-c2ccc(-c3cccc(Cl)c3)cc2)no1)CP(=O)(O)c1ccc(Br)cc1 (stereo partly specified)', '72 kDa type IV collagenase (Homo sapiens)', 'pKi', 6.72);

---

- systemName: Matrilysin (Homo sapiens)
- Sequence (P09237 whole entry): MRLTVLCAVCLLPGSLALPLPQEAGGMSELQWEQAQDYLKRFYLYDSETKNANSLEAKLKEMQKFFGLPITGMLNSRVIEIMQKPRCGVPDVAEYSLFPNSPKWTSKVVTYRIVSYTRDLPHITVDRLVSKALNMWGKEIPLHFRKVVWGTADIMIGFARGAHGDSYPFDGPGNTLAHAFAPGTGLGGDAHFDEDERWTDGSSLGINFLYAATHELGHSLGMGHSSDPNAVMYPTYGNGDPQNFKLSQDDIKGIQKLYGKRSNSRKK
parameterMeasured: Ki (nM)

INSERT INTO measurements (compound, parametermeasured, readoutvalue) VALUES
  ('NC(=O)[C@@H](CCC(=O)O)NC(=O)[C@H](CCC(=O)O)NC(=O)C(Cc1cc(-c2ccc(-c3cccc(Cl)c3)cc2)no1)CP(=O)(O)c1ccc(Br)cc1 (stereo partly specified)', 'Ki', 626);

---

- systemName: Stromelysin-1 (Homo sapiens, UniProt P08254)
- Sequence (P08254 whole entry): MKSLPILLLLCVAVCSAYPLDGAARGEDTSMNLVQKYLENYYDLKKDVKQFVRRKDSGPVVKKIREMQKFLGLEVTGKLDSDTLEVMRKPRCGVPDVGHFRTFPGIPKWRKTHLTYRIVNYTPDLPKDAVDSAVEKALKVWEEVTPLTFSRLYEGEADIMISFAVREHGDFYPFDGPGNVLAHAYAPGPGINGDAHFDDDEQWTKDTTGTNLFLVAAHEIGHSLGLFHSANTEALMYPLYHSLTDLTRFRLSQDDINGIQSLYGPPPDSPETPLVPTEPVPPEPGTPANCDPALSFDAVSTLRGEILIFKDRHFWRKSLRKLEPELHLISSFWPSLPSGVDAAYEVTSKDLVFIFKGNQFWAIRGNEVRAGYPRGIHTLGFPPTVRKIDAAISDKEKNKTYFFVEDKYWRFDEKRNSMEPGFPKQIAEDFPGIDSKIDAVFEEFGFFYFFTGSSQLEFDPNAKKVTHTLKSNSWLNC
parameterMeasured: Ki (nM)

INSERT INTO assay_data (compound, systemname, parametermeasured, measureunit, readoutvalue) VALUES
  ('NC(=O)[C@@H](CCC(=O)O)NC(=O)[C@H](CCC(=O)O)NC(=O)C(Cc1cc(-c2ccc(-c3cccc(Cl)c3)cc2)no1)CP(=O)(O)c1ccc(Br)cc1 (stereo partly specified)', 'Stromelysin-1 (Homo sapiens, UniProt P08254)', 'Ki', 'nM', 40);

---

- systemName: Matrix metalloproteinase-9 (Homo sapiens, UniProt P14780)
- Sequence (P14780 whole entry): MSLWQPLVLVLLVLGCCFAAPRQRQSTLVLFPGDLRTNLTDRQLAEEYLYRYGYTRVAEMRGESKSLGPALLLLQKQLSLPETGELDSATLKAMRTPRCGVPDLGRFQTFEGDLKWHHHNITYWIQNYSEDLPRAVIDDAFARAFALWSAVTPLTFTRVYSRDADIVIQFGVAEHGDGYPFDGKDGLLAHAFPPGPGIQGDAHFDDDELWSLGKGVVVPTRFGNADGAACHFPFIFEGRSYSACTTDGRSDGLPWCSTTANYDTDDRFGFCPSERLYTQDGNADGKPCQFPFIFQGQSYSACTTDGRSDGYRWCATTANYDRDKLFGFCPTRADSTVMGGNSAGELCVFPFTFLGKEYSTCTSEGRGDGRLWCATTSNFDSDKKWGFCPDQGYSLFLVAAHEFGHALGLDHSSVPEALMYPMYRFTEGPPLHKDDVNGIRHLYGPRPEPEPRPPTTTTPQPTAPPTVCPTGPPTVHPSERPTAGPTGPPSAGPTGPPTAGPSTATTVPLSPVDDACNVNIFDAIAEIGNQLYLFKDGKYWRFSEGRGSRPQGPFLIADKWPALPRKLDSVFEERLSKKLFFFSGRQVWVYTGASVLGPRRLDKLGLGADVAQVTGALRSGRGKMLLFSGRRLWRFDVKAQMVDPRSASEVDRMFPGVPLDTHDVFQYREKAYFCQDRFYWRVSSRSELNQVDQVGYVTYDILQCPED
parameterMeasured: Ki (nM)

INSERT INTO assay_data (molecule, systemname, measureunit, readoutvalue) VALUES
  ('NC(=O)[C@@H](CCC(=O)O)NC(=O)[C@H](CCC(=O)O)NC(=O)C(Cc1cc(-c2ccc(-c3cccc(Cl)c3)cc2)no1)CP(=O)(O)c1ccc(Br)cc1 (stereo partly specified) [RXP470, Compound 4]', 'Matrix metalloproteinase-9 (Homo sapiens, UniProt P14780)', 'nM', 850);

---

- systemName: Matrix metalloproteinase-14 (Homo sapiens)
- method: Enzyme Assay
- conditionParameters: pH 6.8; 25 °C
- From the text: Enzyme assay using matrix metalloproteinases.
pKi: −log10 of the molar value.
parameterMeasured: pKi

INSERT INTO measurements (compound, parametermeasured, readoutvalue) VALUES
  ('NC(=O)[C@@H](CCC(=O)O)NC(=O)[C@H](CCC(=O)O)NC(=O)C(Cc1cc(-c2ccc(-c3cccc(Cl)c3)cc2)no1)CP(=O)(O)c1ccc(Br)cc1 (stereo partly specified)', 'pKi', 6.85);

---

- systemName: Interstitial collagenase (Homo sapiens, UniProt P03956)
- Sequence (P03956 whole entry): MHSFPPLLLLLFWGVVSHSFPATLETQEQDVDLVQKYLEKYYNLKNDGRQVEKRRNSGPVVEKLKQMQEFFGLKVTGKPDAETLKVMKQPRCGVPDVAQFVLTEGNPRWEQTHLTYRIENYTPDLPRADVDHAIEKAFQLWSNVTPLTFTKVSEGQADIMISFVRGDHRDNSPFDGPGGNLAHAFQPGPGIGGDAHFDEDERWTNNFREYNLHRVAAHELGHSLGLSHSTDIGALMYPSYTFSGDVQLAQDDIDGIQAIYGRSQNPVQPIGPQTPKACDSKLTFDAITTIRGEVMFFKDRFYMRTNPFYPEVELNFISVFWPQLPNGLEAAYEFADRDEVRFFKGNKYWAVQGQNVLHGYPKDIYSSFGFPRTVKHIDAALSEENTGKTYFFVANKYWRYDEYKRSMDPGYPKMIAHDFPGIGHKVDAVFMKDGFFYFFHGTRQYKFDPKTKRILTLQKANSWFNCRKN
pKi: −log10 of the molar value.
parameterMeasured: pKi

INSERT INTO results (compound, systemname, readoutvalue) VALUES
  ('NC(=O)[C@@H](CCC(=O)O)NC(=O)[C@H](CCC(=O)O)NC(=O)C(Cc1cc(-c2ccc(-c3cccc(Cl)c3)cc2)no1)CP(=O)(O)c1ccc(Br)cc1 (stereo partly specified)', 'Interstitial collagenase (Homo sapiens, UniProt P03956)', '< 5.00');

---

- systemName: Disintegrin and metalloproteinase domain-containing protein 17 [215-477,S266A,N452Q] (Homo sapiens, UniProt P78536, N452Q/S266A)
- Construct: 215-477
- Sequence (P78536 215-477 S266A/N452Q): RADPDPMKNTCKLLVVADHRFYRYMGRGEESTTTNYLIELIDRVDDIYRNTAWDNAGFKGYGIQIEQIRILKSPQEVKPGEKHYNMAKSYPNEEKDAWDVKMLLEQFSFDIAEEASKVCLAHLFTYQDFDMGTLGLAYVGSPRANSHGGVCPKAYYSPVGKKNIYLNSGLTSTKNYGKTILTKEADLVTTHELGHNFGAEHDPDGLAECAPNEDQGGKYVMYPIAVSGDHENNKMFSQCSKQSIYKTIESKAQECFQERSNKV
- method: Enzyme Assay
- conditionParameters: pH 6.8; 25 °C
parameterMeasured: Ki

INSERT INTO assay_data (molecule, parametermeasured, readoutvalue) VALUES
  ('NC(=O)[C@@H](CCC(=O)O)NC(=O)[C@H](CCC(=O)O)NC(=O)C(Cc1cc(-c2ccc(-c3cccc(Cl)c3)cc2)no1)CP(=O)(O)c1ccc(Br)cc1 (stereo partly specified) [RXP470, Compound 4]', 'Ki', '> 10 µM');
